The measurements presented in this section are drawn from ChEMBL document CHEMBL3621107.

Tested on: SF-268
Experiment: Cytotoxicity against human SF268 cells assessed as cell growth at 10 uM after 48 hrs by SRB assay relative to control
Format: functional
Conditions: SF-268, 48 h, read-out: Activity
Recorded measurements of growth at 10 µM, one per entry
Write the answer as a number in %, unit excluded.

Example compounds with recorded growth at 10 µM:
>  <substance_smiles>
O=C1c2ccccc2C(=O)c2c1cc(Sc1ccccc1Br)c1nsnc21

>  <target>
SF-268

>  <growth at 10 µM [%]>
-5.11

$$$$
>  <substance_smiles>
O=C1c2ccccc2C(=O)c2c1cc(Sc1cc(Cl)ccc1Cl)c1nsnc21

>  <target>
SF-268

>  <growth at 10 µM [%]>
83

$$$$
>  <substance_smiles>
CSc1ccc(Sc2cc3c(c4nsnc24)C(=O)c2ccccc2C3=O)cc1

>  <target>
SF-268

>  <growth at 10 µM [%]>
89.7

$$$$

For the compound shown here, `O=C1c2ccccc2C(=O)c2c1cc(Cl)c1nsnc21` , give the reported growth at 10 µM.
37

For the compound shown here, `O=C1c2ccccc2C(=O)c2c1cc(Sc1ccccc1)c1nsnc21` , give the reported growth at 10 µM.
102

For the compound shown here, `O=C1c2ccccc2C(=O)c2c1cc(Sc1ccc(Cl)cc1)c1nsnc21` , give the reported growth at 10 µM.
105

For the compound shown here, `COc1cccc(Sc2cc3c(c4nsnc24)C(=O)c2ccccc2C3=O)c1` , give the reported growth at 10 µM.
89.8

For the compound shown here, `Cc1ccc(Sc2cc3c(c4nsnc24)C(=O)c2ccccc2C3=O)c(C)c1` , give the reported growth at 10 µM.
90.6

For the compound shown here, `COc1ccc(Sc2cc3c(c4nsnc24)C(=O)c2ccccc2C3=O)cc1` , give the reported growth at 10 µM.
94.8

For the compound shown here, `O=C1c2ccccc2C(=O)c2c1cc(SCc1ccc(Cl)cc1)c1nsnc21` , give the reported growth at 10 µM.
107

For the compound shown here, `Cc1ccccc1Sc1cc2c(c3nsnc13)C(=O)c1ccccc1C2=O` , give the reported growth at 10 µM.
74.7

---

Test system: LOX IMVI
Test: Cytotoxicity against human LOXIMVI cells after 48 hrs by SRB assay
Type: functional
Recorded measurements of TGI, one per entry
Write the answer as a number in nM, unit excluded.

Example molecules with recorded TGI:
>  <substance_smiles>
CC(C)Sc1cc2c(c3nsnc13)C(=O)c1ccccc1C2=O

>  <test_result>
1310

$$$$
>  <substance_smiles>
O=C1c2ccccc2C(=O)c2c1cc(Sc1cccc(Cl)c1)c1nsnc21

>  <test_result>
2080

$$$$
>  <substance_smiles>
O=C1c2ccccc2C(=O)c2c1cc(Sc1ccc(F)cc1F)c1nsnc21

>  <test_result>
2640

$$$$

For the molecule shown here, `O=C1c2ccccc2C(=O)c2c1cc(SCc1ccccc1)c1nsnc21` , give the reported TGI.
12800

---

Assay: Cytotoxicity against human melanoma cells assessed as growth inhibition after 48 hrs by SRB assay
Format: functional
Details: Melanoma cell
assay_readout: GI50 (nM)
Write the answer as a number in nM, unit excluded.

Example compounds with recorded GI50:
>  <substance_smiles>
O=C1c2ccccc2C(=O)c2c1cc(SCc1ccccc1)c1nsnc21

>  <test_result>
10600

$$$$
>  <substance_smiles>
O=C1c2ccccc2C(=O)c2c1cc(Sc1ccc(F)cc1F)c1nsnc21

>  <test_result>
2120

$$$$
>  <substance_smiles>
CC(C)Sc1cc2c(c3nsnc13)C(=O)c1ccccc1C2=O

>  <test_result>
1120

$$$$
>  <substance_smiles>
O=C1c2ccccc2C(=O)c2c1cc(Sc1ccccc1Br)c1nsnc21

>  <test_result>
12900

$$$$

Now for another entry.
For the compound shown here, `O=C1c2ccccc2C(=O)c2c1cc(Sc1cccc(Cl)c1)c1nsnc21` , give the reported GI50.
1560
